Data origin, for the record: patent US20210380675A1

- Experimental system: T1, human IL-36γ, truncated (human, UniProt Q9NZH8 18-169)
- T1 construct: Bought from R&D Systems (cat 6835-IL); also called human IL-36 gamma; hIL-36gamma
- T1 sequence: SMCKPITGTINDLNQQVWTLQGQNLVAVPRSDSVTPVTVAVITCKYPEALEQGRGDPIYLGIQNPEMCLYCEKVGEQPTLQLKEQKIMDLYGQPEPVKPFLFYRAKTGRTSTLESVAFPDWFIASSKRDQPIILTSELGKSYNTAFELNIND
- Assay name: SPR, Biacore, 1:1 Langmuir fit; heads of c3 and c4 printed swapped
Can you tell me kon for the items I'm about to list?
Numbers only, in M⁻¹ s⁻¹.

Example results:
144L249B LV9 HV10b (antibody, V domains shown, Humanized) VH: QVQLVQSGAEVKKPGASVKVSCKASGFNIKDTYIYWVRQAPGQGLEWIGRIDPAIGTTRYDPKFQGKATLTTDTSTSTAYLELSSLRSEDTAVYYCARYDYSGSSFYFDYWGQGTLVTVSS VL: QAVVTQEPSLTVSPGGTVTLTCRSSTGAVTTSNYANWVQEKPGQLFTGLIGGTNDRAPGVPARFSGSLLGGKAALTLSGAQPEDEADYFCALWYSNHLVFGGGTKLTVL
772000
144D464A LV10re HV10b (antibody, V domains shown, Humanized) VH: QVQLVQSGAEVKKPGASVKVSCKASGFNIKDTYIHWVRQAPGQGLEWIGRIDPAIGTTRYDPKFQGRATITTDTSTSTVYLEFSSLRSEDTAVYYCARLHYFGNNFFFDYWGQGTLVTVSS VL: QAVVTQEPSLTVSPGGTVTLTCRSSSGAVTTSNYANWVQEKPGQLFAGLIGGTNDRAPGVPARFSGSLLGGKAALTLSGAQPEDEAIYFCALWFSNHWVFGGGTKLTVL
353000

// below: kon requested for another binder
Task: For 144D464A LV11re HV10b (antibody, V domains shown, Humanized) VH: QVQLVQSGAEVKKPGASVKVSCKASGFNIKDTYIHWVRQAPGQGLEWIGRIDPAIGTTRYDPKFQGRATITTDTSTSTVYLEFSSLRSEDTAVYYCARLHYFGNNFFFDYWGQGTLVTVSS VL: QAVVTQEPSLTVSPGGTVTLTCRSSSGAVTTSNYANWVQEKPGQLFAGLIGGTNDRAPGVPARFSGSLLGGKAALTISGAQPEDEAIYFCALWFSNHWVFGGGTKLTVL , what is its reported kon?
Output: 346000
